- assayed_target: AchR (Homo sapiens, UniProt P02708)
- Sequence (P02708 21-457): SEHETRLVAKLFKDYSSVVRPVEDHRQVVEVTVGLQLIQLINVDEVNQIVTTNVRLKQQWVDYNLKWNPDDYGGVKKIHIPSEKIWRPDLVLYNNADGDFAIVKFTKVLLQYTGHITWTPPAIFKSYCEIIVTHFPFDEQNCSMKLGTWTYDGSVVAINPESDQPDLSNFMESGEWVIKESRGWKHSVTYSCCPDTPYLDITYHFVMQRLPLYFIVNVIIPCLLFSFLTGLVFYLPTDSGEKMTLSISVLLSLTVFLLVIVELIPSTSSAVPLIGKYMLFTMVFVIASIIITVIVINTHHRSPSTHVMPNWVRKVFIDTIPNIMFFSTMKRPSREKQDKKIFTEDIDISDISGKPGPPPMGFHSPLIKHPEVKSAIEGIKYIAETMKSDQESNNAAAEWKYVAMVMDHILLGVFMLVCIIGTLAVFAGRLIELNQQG
- method: ELISA of screened peptide phages on AchR versus streptavidin (OD450)
- Type: binding
- experimental_parameters: phage ELISA, absorbance at 450 nm, 5 μg/ml AchR; 4th and 5th round biopanning phages
quantity: OD
Give the figure only, with no unit attached.

Incoming: // returns reported OD for input KTKKIHSK [Peptide L1-22]
Outgoing: 0.732

Incoming: Queued: RPRRSLDR [Peptide L1-17]
Outgoing: 0.653

Incoming: Queued: RGKRGCER [Peptide L1-54]
Outgoing: 0.569

Incoming: Queued: RQRRMTPR [Peptide L1-156]
Outgoing: 0.589

Incoming: Queued: KIKRNVFK [Peptide L1-160]
Outgoing: 0.55

Incoming: Queued: RRRRRRRRRRR [Peptide L2-201, reference compound]
Outgoing: 0.307

Incoming: Queued: KQRKPHGR [Peptide L1-67]
Outgoing: 0.593

Incoming: Queued: RSKKSLYR [Peptide L1-53]
Outgoing: 0.78

Incoming: Queued: RHRKYVDK [Peptide L1-152]
Outgoing: 0.484

Incoming: Queued: KDRKGVYK [Peptide L1-111]
Outgoing: 0.608

Incoming: Queued: RYKKQQYK [Peptide L1-167]
Outgoing: 0.581

Incoming: Queued: RPRRGHQK [Peptide L1-24]
Outgoing: 0.742

Incoming: Queued: KYKKSFTK [Peptide L1-198]
Outgoing: 0.63

Incoming: Queued: RGKKPWWR [Peptide L1-104]
Outgoing: 0.46

----------
Please go through the items and note down their OD.
- assayed_target: AchR (Homo sapiens)
- method: ELISA of screened peptide phages on AchR versus streptavidin (OD450)
- Format: binding
- experimental_parameters: ELISA of selected 11-mer (L2) peptide phages on AchR, absorbance at 450 nm; Spep-2 positive control
Give the figure only, with no unit attached.

Incoming: // returns reported OD for input L2-47 (IEDKGRRINPR; AchR binding peptide) [Peptide L2-47]
Outgoing: 0.707

Incoming: Queued: L2-109 (YPTKGKRCMIR; AchR binding peptide) [Peptide L2-109]
Outgoing: 0.596

Incoming: Queued: L2-128 (SPWRIRRQNIR; AchR binding peptide) [Peptide L2-128]
Outgoing: 0.516

Incoming: Queued: L2-185 (FITRFRKMGEK; AchR binding peptide) [Peptide L2-185]
Outgoing: 0.742

Incoming: Queued: L2-120 (PAARTKRMYGR; AchR binding peptide) [Peptide L2-120]
Outgoing: 0.607

Incoming: Queued: L2-191 (PDSRLKKHEAK; AchR binding peptide) [Peptide L2-191]
Outgoing: 0.689

Incoming: Queued: L2-103 (QYNKGRKIHVR; AchR binding peptide) [Peptide L2-103]
Outgoing: 0.571

Incoming: Queued: L2-73 (PPFKFRKPLGR; AchR binding peptide) [Peptide L2-73]
Outgoing: 0.662

Incoming: Queued: L2-132 (LFTRIKRLVCK; AchR binding peptide) [Peptide L2-132]
Outgoing: 0.515

Incoming: Queued: L2-175 (CVMRCRRSEDK; AchR binding peptide) [Peptide L2-175]
Outgoing: 0.65

Incoming: Queued: L2-7 (WQMKTKKEIWK; AchR binding peptide) [Peptide L2-7]
Outgoing: 0.753

Incoming: Queued: L2-83 (HQQKCKKTTTK; AchR binding peptide) [Peptide L2-83]
Outgoing: 0.65

Incoming: Queued: L2-9 (ATCKPKRPWYK; AchR binding peptide) [Peptide L2-9]
Outgoing: 0.721

Incoming: Queued: L2-135 (FPGKNRKYCSR; AchR binding peptide) [Peptide L2-135]
Outgoing: 0.557

Incoming: Queued: L2-111 (GYFRPRKETCK; AchR binding peptide) [Peptide L2-111]
Outgoing: 0.594

Incoming: Queued: L2-90 (TSVKKRKQRLR; AchR binding peptide) [Peptide L2-90]
Outgoing: 0.765

Incoming: Queued: L2-8 (FGHRGKKEWAR; AchR binding peptide) [Peptide L2-8]
Outgoing: 0.739

Incoming: Queued: L2-50 (SADRNKRHMTR; AchR binding peptide) [Peptide L2-50]
Outgoing: 0.656

Incoming: Queued: L2-113 (QNDKDRKLSHR; AchR binding peptide) [Peptide L2-113]
Outgoing: 0.64

----------
- assayed_target: AchR (Homo sapiens)
- method: ELISA of screened peptide phages on AchR versus streptavidin (OD450)
- Format: binding
- experimental_parameters: ELISA of selected 11-mer (L2) peptide phages on AchR, absorbance at 450 nm; Spep-2 positive control
Please go through the items and note down their OD.
Give the figure only, with no unit attached.

Incoming: // returns reported OD for input L2-65 (PLWKTRKIEPR; AchR binding peptide) [Peptide L2-65]
Outgoing: 0.731

Incoming: Queued: L2-114 (QVTKSKRVAFK; AchR binding peptide) [Peptide L2-114]
Outgoing: 0.643

Incoming: Queued: L2-122 (MGDRPRKWDSR; AchR binding peptide) [Peptide L2-122]
Outgoing: 0.558

Incoming: Queued: L2-133 (DFSRDRRCLSK; AchR binding peptide) [Peptide L2-133]
Outgoing: 0.526

Incoming: Queued: L2-12 (AYAKARRWGQK; AchR binding peptide) [Peptide L2-12]
Outgoing: 0.83

Incoming: Queued: L2-139 (SVLRCRKCSMK; AchR binding peptide) [Peptide L2-139]
Outgoing: 0.528

Incoming: Queued: L2-26 (APWRLKRAPQR; AchR binding peptide) [Peptide L2-26]
Outgoing: 0.809

Incoming: Queued: L2-34 (VMDRDRKWWWR; AchR binding peptide) [Peptide L2-34]
Outgoing: 0.604

Incoming: Queued: L2-163 (PHARTRKNITK; AchR binding peptide) [Peptide L2-163]
Outgoing: 0.725

----------
- assayed_target: AchR (Homo sapiens)
- method: ELISA of screened peptide phages on AchR versus streptavidin (OD450)
- Format: binding
- experimental_parameters: ELISA of selected 14-mer (L3) peptide phages on AchR, absorbance at 450 nm; Spep-2 positive control
No end group written: not given here.
Class True: OD at least 0.7. Class False: OD below 0.7.

Incoming: Assess whether reported OD for L3-177 (FQPKSRRAETKHSY; AchR binding peptide) [Peptide L3-177] sits at 0.7 or higher.
Outgoing: True

Incoming: Queued: L3-100 (LEERPKKHCAKNHC; AchR binding peptide) [Peptide L3-100]
Outgoing: False

Incoming: Queued: L3-178 (PDLKFRKHQDRTAI; AchR binding peptide) [Peptide L3-178]
Outgoing: True

Incoming: Queued: L3-147 (ADHRAKKTLSKFWT; AchR binding peptide) [Peptide L3-147]
Outgoing: False

Incoming: Queued: L3-71 (PLIKVKRGVGKLWN; AchR binding peptide) [Peptide L3-71]
Outgoing: True

Incoming: Queued: L3-7 (EGDKFRRHDIKYNF; AchR binding peptide) [Peptide L3-7]
Outgoing: True

Incoming: Queued: L3-167 (AMCREKRFPYRAIY; AchR binding peptide) [Peptide L3-167]
Outgoing: False

Incoming: Queued: L3-74 (IAIRPRKMTLKIHP; AchR binding peptide) [Peptide L3-74]
Outgoing: True

Incoming: Queued: L3-19 (YMKKKRKSLLRTSL; AchR binding peptide) [Peptide L3-19]
Outgoing: True

Incoming: Queued: L3-103 (NDWKLRKDFWRNHF; AchR binding peptide) [Peptide L3-103]
Outgoing: False

Incoming: Queued: L3-14 (FPGKSKKQWHRLWP; AchR binding peptide) [Peptide L3-14]
Outgoing: True

Incoming: Queued: L3-12 (DPPKKRKSLLRRVS; AchR binding peptide) [Peptide L3-12]
Outgoing: True

Incoming: Queued: L3-109 (YITKFRKFLMKDQF; AchR binding peptide) [Peptide L3-109]
Outgoing: False

Incoming: Queued: L3-198 (LPWRERRNGGRSSE; AchR binding peptide) [Peptide L3-198]
Outgoing: True

Incoming: Queued: L3-35 (LQCKYRRGSDKQPQ; AchR binding peptide) [Peptide L3-35]
Outgoing: True

Incoming: Queued: L3-94 (PVLKLRKGRVRAQP; AchR binding peptide) [Peptide L3-94]
Outgoing: False

Incoming: Queued: L3-96 (EWHKHRREMVRWGP; AchR binding peptide) [Peptide L3-96]
Outgoing: False

Incoming: Queued: L3-144 (CSYKLRRCDMRLWG; AchR binding peptide) [Peptide L3-144]
Outgoing: False

Incoming: Queued: L3-106 (DLVRKRKTMLRQLV; AchR binding peptide) [Peptide L3-106]
Outgoing: False

Incoming: Queued: L3-134 (YWFRIKRAHAKGCP; AchR binding peptide) [Peptide L3-134]
Outgoing: False

Incoming: Queued: L3-86 (SEVRPKKDHSRLFI; AchR binding peptide) [Peptide L3-86]
Outgoing: True

Incoming: Queued: L3-110 (AWAKYKKVQPKHHT; AchR binding peptide) [Peptide L3-110]
Outgoing: False

Incoming: Queued: WTWKGRKSLLR [Spep-2, WTWKGRKSLLR]
Outgoing: False

Incoming: Queued: L3-29 (CASKPRRTYLRAAN; AchR binding peptide) [Peptide L3-29]
Outgoing: True

Incoming: Queued: L3-32 (CATRGKKVFSKRTM; AchR binding peptide) [Peptide L3-32]
Outgoing: True

Incoming: Queued: L3-15 (YEPRFKRPYGKWCH; AchR binding peptide) [Peptide L3-15]
Outgoing: True

Incoming: Queued: L3-161 (MAAKWKKDGMKSHY; AchR binding peptide) [Peptide L3-161]
Outgoing: True

Incoming: Queued: L3-183 (NMARSRKNECKYIA; AchR binding peptide) [Peptide L3-183]
Outgoing: True

Incoming: Queued: L3-156 (IVPRDRKQALRWTN; AchR binding peptide) [Peptide L3-156]
Outgoing: True

Incoming: Queued: L3-33 (LRQRSKRVLEKLRP; AchR binding peptide) [Peptide L3-33]
Outgoing: True
